Some compounds, each annotated with its measured Activity.
Assay: Cytotoxicity against rat FRT cells assessed as cell viability at 20 uM after 48 hrs by crystal violet staining
Type: cell-based
measurement_label: Activity (%)

{"smiles_record": "O=C(O)c1ccc(/C=C2\\SC(=S)N(c3cccc(C(F)(F)F)c3)C2=O)cc1", "unit_label": "%", "recorded_measurement": 86}
{"smiles_record": "O=C1/C(=C/c2ccc(-c3nn[nH]n3)cc2)SC(=S)N1c1cccc(C(F)(F)F)c1", "unit_label": "%", "recorded_measurement": 87}
{"smiles_record": "Cc1c(N2C(=O)/C(=C/c3ccc(C(=O)O)cc3)SC2=S)cccc1C(F)(F)F", "unit_label": "%", "recorded_measurement": 89}
{"smiles_record": "O=C(O)c1ccc(/C=C2\\SC(=O)N(c3cccc(C(F)(F)F)c3)C2=O)cc1", "unit_label": "%", "recorded_measurement": 93}

----------
Target: Cystic fibrosis transmembrane conductance regulator (Homo sapiens, UniProt P13569)
Sequence (P13569 whole entry): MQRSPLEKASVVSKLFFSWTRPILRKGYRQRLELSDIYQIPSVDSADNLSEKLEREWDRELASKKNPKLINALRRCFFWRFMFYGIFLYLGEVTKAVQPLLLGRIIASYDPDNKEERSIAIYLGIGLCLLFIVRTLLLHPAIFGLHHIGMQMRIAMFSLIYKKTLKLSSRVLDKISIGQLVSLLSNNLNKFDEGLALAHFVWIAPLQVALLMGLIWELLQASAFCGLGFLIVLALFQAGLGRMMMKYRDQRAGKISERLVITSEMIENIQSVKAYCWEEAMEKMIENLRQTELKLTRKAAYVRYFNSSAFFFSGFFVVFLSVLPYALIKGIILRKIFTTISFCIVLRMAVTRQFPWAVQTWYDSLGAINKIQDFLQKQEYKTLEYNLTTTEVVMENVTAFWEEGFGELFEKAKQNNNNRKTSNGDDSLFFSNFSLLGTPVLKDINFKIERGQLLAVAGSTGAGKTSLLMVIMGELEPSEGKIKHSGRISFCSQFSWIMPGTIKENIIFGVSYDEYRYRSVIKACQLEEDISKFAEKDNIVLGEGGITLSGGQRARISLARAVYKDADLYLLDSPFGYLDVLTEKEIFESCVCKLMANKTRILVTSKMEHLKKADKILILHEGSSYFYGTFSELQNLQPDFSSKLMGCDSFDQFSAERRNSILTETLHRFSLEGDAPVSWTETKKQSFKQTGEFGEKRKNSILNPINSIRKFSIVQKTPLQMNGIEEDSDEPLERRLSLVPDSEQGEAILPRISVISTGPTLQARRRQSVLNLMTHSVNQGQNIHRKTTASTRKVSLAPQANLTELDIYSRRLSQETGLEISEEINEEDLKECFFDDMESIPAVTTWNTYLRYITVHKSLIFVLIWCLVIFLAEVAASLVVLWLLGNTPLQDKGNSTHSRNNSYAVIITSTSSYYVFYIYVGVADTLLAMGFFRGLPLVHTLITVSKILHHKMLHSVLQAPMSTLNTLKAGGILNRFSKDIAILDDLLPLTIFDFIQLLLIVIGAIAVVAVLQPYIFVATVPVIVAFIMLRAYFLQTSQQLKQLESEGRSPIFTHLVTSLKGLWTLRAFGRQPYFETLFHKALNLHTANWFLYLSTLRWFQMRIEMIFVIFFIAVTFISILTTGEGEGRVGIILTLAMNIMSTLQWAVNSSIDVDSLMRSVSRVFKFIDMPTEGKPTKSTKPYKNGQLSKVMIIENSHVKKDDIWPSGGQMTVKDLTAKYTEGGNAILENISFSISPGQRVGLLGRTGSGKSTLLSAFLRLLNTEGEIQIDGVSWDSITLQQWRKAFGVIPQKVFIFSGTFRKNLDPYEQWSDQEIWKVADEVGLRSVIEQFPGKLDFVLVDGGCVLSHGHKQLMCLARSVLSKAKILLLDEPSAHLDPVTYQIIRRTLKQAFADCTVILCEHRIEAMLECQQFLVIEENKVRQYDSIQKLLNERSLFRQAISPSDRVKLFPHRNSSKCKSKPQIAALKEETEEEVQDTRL
Test: Inhibition of human wild type CFTR expressed in rat FRT cells assessed as chloride current by short-circuit current measurements

{"molecule": "O=C(O)c1ccc(NC2=C(Cl)C(=O)N(c3cccc(C(F)(F)F)c3)C2=O)cc1", "IC50": "36 µM"}
{"molecule": "O=C(O)c1ccc(/C=C2\\SC(=S)N(c3ccc(F)c(C(F)(F)F)c3)C2=O)cc1", "IC50": "1.5 µM"}
{"molecule": "O=C1C(C(=S)Nc2ccc(S(=O)(=O)O)o2)SC(=S)N1c1cccc(C(F)(F)F)c1 (stereo not given)", "IC50": "27 µM"}
{"molecule": "O=C(O)c1cccc(/C=C2\\SC(=S)N(c3ccc(F)c(C(F)(F)F)c3)C2=O)c1", "IC50": "5 µM"}
{"molecule": "O=C(O)c1ccccc1/C=C1\\SC(=S)N(c2cccc(C(F)(F)F)c2)C1=O", "IC50": "15 µM"}
{"molecule": "O=C(O)c1cc(/C=C2\\SC(=S)N(c3cccc(C(F)(F)F)c3)C2=O)ccc1O", "IC50": "1.4 µM"}
{"molecule": "Cc1cccc(N2C(=O)/C(=C/c3ccc(C(=O)O)cc3)SC2=S)c1C", "IC50": "7 µM"}
{"molecule": "O=C(O)c1ccc(/C=C2\\SC(=S)N(c3ccc(C(F)(F)F)cc3)C2=O)cc1", "IC50": "15 µM"}
{"molecule": "O=C(O)c1cc(/C=C2\\SC(=S)N(c3ccc(C(F)(F)F)cc3)C2=O)ccc1O", "IC50": "25 µM"}
{"molecule": "O=C(O)c1ccccc1/C=C1\\SC(=S)N(c2ccc(C(F)(F)F)cc2)C1=O", "IC50": "20 µM"}

----------
Target: Cystic fibrosis transmembrane conductance regulator (Homo sapiens)
Test: Inhibition of human wild type CFTR expressed in rat FRT cells assessed as chloride current by short-circuit current measurements

{"smiles_record": "O=C(O)c1ccc(/C=C2\\SC(=S)N(c3ccc(Cl)c(C(F)(F)F)c3)C2=O)cc1", "IC50, µM": 15}
{"smiles_record": "Cc1cccc(N2C(=O)/C(=C/c3ccc(C(=O)O)cc3)SC2=S)c1", "IC50, µM": 5}
{"smiles_record": "O=C1/C(=C/c2cc(Br)c(O)c(Br)c2)SC(=S)N1c1cccc(C(F)(F)F)c1", "IC50, µM": 7}
{"smiles_record": "O=C1/C(=C/c2ccc(O)c(O)c2O)SC(=S)N1c1cccc(C(F)(F)F)c1", "IC50, µM": 28}
{"smiles_record": "O=C(O)COc1cccc(/C=C2\\SC(=S)N(c3cccc(C(F)(F)F)c3)C2=O)c1", "IC50, µM": 30}

----------
Biological target: Cystic fibrosis transmembrane conductance regulator (Homo sapiens)
Test: Inhibition of human wild type CFTR expressed in rat FRT cells assessed as chloride current by short-circuit current measurements
pIC50: −log10 of the molar value.
measurement_label: pIC50

{"compound": "O=C(O)c1ccc(Nc2nc(-c3cccc(C(F)(F)F)c3)cs2)cc1", "system": "Cystic fibrosis transmembrane conductance regulator (Homo sapiens)", "recorded_measurement": 4.55}
{"compound": "O=C(O)c1cccc(/C=C2\\SC(=S)N(c3ccc(C(F)(F)F)cc3)C2=O)c1", "system": "Cystic fibrosis transmembrane conductance regulator (Homo sapiens)", "recorded_measurement": 4.89}
{"compound": "O=C(O)c1ccc(SC2CC(=O)N(c3cccc(C(F)(F)F)c3)C2=O)cc1 (stereo unspecified)", "system": "Cystic fibrosis transmembrane conductance regulator (Homo sapiens)", "recorded_measurement": 5.15}
{"compound": "O=C(O)c1cccc(/C=C2\\SC(=S)N(c3ccccc3C(F)(F)F)C2=O)c1", "system": "Cystic fibrosis transmembrane conductance regulator (Homo sapiens)", "recorded_measurement": 4.72}
{"compound": "O=C1/C(=C/c2ccc(S(=O)(=O)O)cc2S(=O)(=O)O)SC(=S)N1c1cccc(C(F)(F)F)c1", "system": "Cystic fibrosis transmembrane conductance regulator (Homo sapiens)", "recorded_measurement": 4.30}
{"compound": "O=C(O)c1ccc(/C=C2\\SC(=S)N(c3cc(C(F)(F)F)cc(C(F)(F)F)c3)C2=O)cc1", "system": "Cystic fibrosis transmembrane conductance regulator (Homo sapiens)", "recorded_measurement": 4.85}
